Source listed as the RepoRT retention time repository (doi:10.1093/pcp/pcn183).

Experiment: RP, Waters ACQUITY UPLC BEH C18, 38 °C, 0.24 mL/min; A: water + 0.1% formic acid, pH 3; B: acetonitrile + 0.1% formic acid, pH 3; gradient (min/%B) 0/0 0.25/0 0.4/9 0.8/17 1.9/100 2.1/100 2.11/0 3/0
Details: stereoisomer not certain
recorded-metric: LC retention time (min)

[a] O=c1ccc2ccc(O)c(O)c2o1 [Daphnetin]
[b] NCCOP(=O)(O)O [O-Phosphorylethanolamine]
Input: Hi, I'm comparing two records. Which one has the lower LC retention time, a or b ? // output: label of the selected item
Output: b

---

Experiment: RP, Waters ACQUITY UPLC BEH C18, 38 °C, 0.24 mL/min; A: water + 0.1% formic acid, pH 3; B: acetonitrile + 0.1% formic acid, pH 3; gradient (min/%B) 0/0 0.25/0 0.4/9 0.8/17 1.9/100 2.1/100 2.11/0 3/0
Settings: stereoisomer not certain
Counter-ions that a name gives are not always drawn.
recorded-metric: LC retention time (min)

INSERT INTO measurements (compound, observed_measurement) VALUES
  ('O=P(O)(O)OCC(O)CO (racemic) [rac-Glycerol 3-phosphoate disodium salt hexahydrate]', 0.16);

[I] O=c1cc(-c2ccc(O)c(O)c2)oc2cc(OC3OC(CO)C(O)C(O)C3O)cc(O)c12 (centres undefined) [luteolin-7-O-glucoside]
[II] O=c1[nH]c(=O)c2ncn(C3OC(COP(=O)(O)O)C(O)C3O)c2[nH]1 (centres undefined)
[III] O=C(O)[C@@H]1CCCN1
Input: Rank by LC retention time (largest to smallest). # answer = labels listed in requested order
Output: I, II, III
(I: 1.41 min, II: 0.48 min, III: 0.19 min)

---

Test: RP, Waters ACQUITY UPLC BEH C18, 38 °C, 0.24 mL/min; A: water + 0.1% formic acid, pH 3; B: acetonitrile + 0.1% formic acid, pH 3; gradient (min/%B) 0/0 0.25/0 0.4/9 0.8/17 1.9/100 2.1/100 2.11/0 3/0
Details: stereoisomer not certain
recorded-metric: LC retention time (min)

INSERT INTO measurements (compound, observed_measurement) VALUES
  ('O=C(O)Cc1cc(O)ccc1O [Homogentisic acid]', 1.1),
  ('O=C(O)Cc1c[nH]c2ccc(O)cc12 [5-Hydroxyindole-3-acetate (5-HIAA)]', 1.27),
  ('NCCC(=O)NC(Cc1cnc[nH]1)C(=O)O [L-Carnosine]', 0.16),
  ('C[C@@H](O)[C@H](N)C(=O)O [L-Threonine]', 0.17),
  ('CC(=O)C(=O)O [Sodium Pyruvate]', 0.22);

[a] O=C(O)CNC(=O)Cc1ccccc1 [Phenaceturic acid]
[b] NC(=O)c1ncn(C2OC(COP(=O)(O)O)C(O)C2O)c1N (centres undefined)
Input: Recorded LC retention time values differ for a and b ; which one is higher? Respond with the label that goes with your answer.
Output: a
(a: 1.36 min, b: 0.32 min)

---

Assay: RP, Waters ACQUITY UPLC BEH C18, 38 °C, 0.24 mL/min; A: water + 0.1% formic acid, pH 3; B: acetonitrile + 0.1% formic acid, pH 3; gradient (min/%B) 0/0 0.25/0 0.4/9 0.8/17 1.9/100 2.1/100 2.11/0 3/0
Details: stereoisomer not certain
Structures can show the parent of a compound that is named as a salt.
recorded-metric: LC retention time (min)

INSERT INTO results (compound, uom, observed_measurement) VALUES
  ('CC([NH3+])C(=O)NC(C)C(=O)[O-] (stereo not given)', 'min', 0.19),
  ('O=C(O)c1ccc(O)cc1 [4-Hydroxybenzoate]', 'min', 1.25),
  ('CC(=O)Nc1ccc(O)cc1', 'min', 1.15),
  ('O=C(O)CC(C(=O)O)C(O)C(=O)O (racemic) [DL-Isocitric acid trisodium salt]', 'min', 0.24),
  ('O=C(O)C1=CCNCC1 [Isoguvacine hydrochloride]', 'min', 0.18),
  ('O=C(O)C(O)C(O)C(O)C(O)C(=O)O (stereo not given)', 'min', 2.13),
  ('O=C(O)C1CCCCN1 (racemic)', 'min', 0.27),
  ('N#Cc1cccnc1', 'min', 1.18);

[A] CCC(C)C(=O)C(=O)O (racemic) [(+-)-3-Methyl-2-oxovaleric acid sodium salt]
[B] N[C@@H](CCSSCC[C@H](N)C(=O)O)C(=O)O (racemic)
[C] CNCC(O)c1cccc(O)c1 [(R)-(-)-Phenylephrine hydrochloride]
[D] NCC(O)CCC(N)C(=O)O (racemic) [DL-5-Hydroxylysine hydrochloride]
Input: Arrange the 4 entries by LC retention time so the values rise. Answer with the labels in sequence, matching the requested order.
Output: D, B, C, A

[P] Nc1ccc(C(=O)O)cc1
[Q] CC(O)(CC(=O)O)C(=O)O (single isomer, unassigned; (-)) [(-)-Citramalic acid]
Input: Field: lower recorded LC retention time (choose P or Q ) Respond using the label that marks the chosen record.
Output: Q

[P] O=[N+]([O-])c1ccc(OP(=O)(O)O)cc1 [4-Nitrophenyl phosphate disodium salt hexahydrate]
[Q] CC[C@H](N)C(=O)O
Input: Hi team, can someone confirm which has the larger LC retention time: P or Q ? Thanks. // caller expects the label of the chosen entry
Output: P
(P: 0.92 min, Q: 0.18 min)
